We begin with a simple list: items and their reported pIC50.
- targetSystem: Sortase A (Staphylococcus aureus)
- Sequence (Q9S446 whole entry): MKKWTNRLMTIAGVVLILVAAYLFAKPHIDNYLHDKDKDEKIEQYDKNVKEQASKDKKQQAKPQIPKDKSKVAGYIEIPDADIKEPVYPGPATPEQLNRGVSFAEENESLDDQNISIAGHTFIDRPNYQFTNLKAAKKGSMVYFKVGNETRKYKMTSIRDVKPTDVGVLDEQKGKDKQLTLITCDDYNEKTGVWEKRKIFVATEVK
- assay: Inhibition of Staphylococcus aureus sortase A after 1 hr in the presence of fluorescent peptide Dabcul-QALPETGEE-Edans by fluorimetry
Scale for pIC50: -log10 of concentration given in mol/L; no unit attached.

The examples below pair each entry with its known result.
{"compound": "CO[C@H]1C2C(=O)C=C3S[C@H]4C[C@]31C1=C(N4)C(=O)c3[nH]cc4c3C1=[N+]2CC4", "quantityName": "pIC50", "numericValue": 3.83}
{"compound": "O=C1C(Br)=CC2(C=C1Br)CCNC1=C2C2=NCCc3c[nH]c(c32)C1=O", "quantityName": "pIC50", "numericValue": 3.78}
{"compound": "O=C1C=C[C@]2(C=C1Br)CCNC1=C2C2=NCCc3c[nH]c(c32)C1=O", "quantityName": "pIC50", "numericValue": 3.73}

// switching to the query compound
## Task Report pIC50 from Sortase A (Staphylococcus aureus) testing of O=C1C=C2S[C@H]3C[C@]2(C=C1Br)C1=C(N3)C(=O)c2[nH]cc3c2C1=NCC3 [(+)-DISCORHABDIN B]
## Result 3.88

----------
- Tested on: Staphylococcus aureus
- assay: Antibacterial activity against Staphylococcus aureus […]
- Assay type: functional
quantityName: MIC (µg/mL)
Express the result in µg/mL but write the number alone.

# example entries with known answers
{"compound": "O=C1C=C[C@@]23C[C@@H](NC4=C2C2=NCCc5c[nH]c(c52)C4=O)SC3=C1", "unitOfMeasurement": "µg/mL", "MIC": 25}
{"compound": "CO[C@H]1C2C(=O)C=C3S[C@H]4C[C@]31C1=C(N4)C(=O)c3[nH]cc4c3C1=[N+]2CC4", "unitOfMeasurement": "µg/mL", "MIC": 50}
{"compound": "O=C1C=C2S[C@H]3C[C@]2(C=C1Br)C1=C(N3)C(=O)c2[nH]cc3c2C1=NCC3 [(+)-DISCORHABDIN B]", "unitOfMeasurement": "µg/mL", "MIC": 50}

We next turn to a different compound, shown below.
## Task Look up MIC of CC1(C)S[C@@H]2[C@H](NC(=O)[C@H](N)c3ccccc3)C(=O)N2[C@H]1C(=O)O and report it.
## Result 1.56

----------
- Test system: K562
- assay: Cytotoxicity against human K562 cells assessed as viable cells after 72 hrs by MTS/PMS assay
- Format: functional, cell-based
- experimentalContext: K562, 72 h
pIC50: −log10 of the molar value.
Is pIC50 at least 5? Then Yes. If not, No.

Past entries and their recorded results:
{"compound": "O=C1C(NCCc2ccc(O)cc2)=CC2=NCCc3c[nH]c1c32 [MAKALUVAMINE D]", "class": "No"}
{"compound": "O=C1C=CC2(C=C1)CCNC1=C2C2=NCCc3c[nH]c(c32)C1=O [DIDEBROMODISCORHABDIN C]", "class": "No"}
{"compound": "CO[C@H]1C2C(=O)C=C3S[C@H]4C[C@]31C1=C(N4)C(=O)c3[nH]cc4c3C1=[N+]2CC4", "class": "Yes"}

Would you kindly look at the next entry?
## Task Confirm if pIC50 reported for the compound O=C1C2=C3C4=[N+](CCc5c[nH]c1c54)C1C[C@@]34C[C@@H](N2)SC4=CC1=O is 5 or above.
## Result Yes

----------
# MIC per record follows
- System: Staphylococcus aureus
- assay: Antibacterial activity against Staphylococcus aureus […]
- Format: functional

{"testSmiles": "O=C1C2=C3C4=[N+](CCc5c[nH]c1c54)C1C[C@@]34C[C@@H](N2)SC4=C[C@H]1O", "MIC": "> 100 µg/mL"}
{"testSmiles": "O=C1C(Br)=CC2(C=C1Br)CCNC1=C2C2=NCCc3c[nH]c(c32)C1=O", "MIC": "> 100 µg/mL"}
{"testSmiles": "O=C1C=CC2(C=C1)CCNC1=C2C2=NCCc3c[nH]c(c32)C1=O", "MIC": "> 100 µg/mL"}

# context switch: different molecule, same MIC
## Task Answer with the recorded MIC of O=C1C2=C3C4=[N+](CCc5c[nH]c1c54)C1[C@H](O)C=C4S[C@@H](C[C@@]43[C@H]1O)N2 only.
## Result > 100 µg/mL

----------
- Test system: Staphylococcus aureus
- assay: Antibacterial activity against Staphylococcus aureus […]
- Assay type: functional
quantityName: MIC

Reference set, count: 2
{"compound": "O=C1C2=C3C4=[N+](CCc5c[nH]c1c54)C1[C@H](O)CC(=O)[C@@]3(C[C@@H](O)N2)[C@H]1O", "MIC": "> 100 µg/mL"}
{"compound": "O=C1C(NCCc2ccc(O)cc2)=CC2=NCCc3c[nH]c1c32", "MIC": "> 100 µg/mL"}

Could you now consider this next compound?
## Task Please report MIC for the following compound: O=C1C2=C(C3=NCCc4c[nH]c1c43)C1(C=C(Br)C(O)C(Br)=C1)CCN2 (stereo not drawn) [DIHYDRODISCORHABDIN C]
## Result > 100 µg/mL
